Where do the numbers come from? From patent US8680159B2.

# SUBJECT_OF_TEST: human B1R receptor (CHO K1 cells stably transfected with the human B1R gene) (Homo sapiens)
# Construct: expressed in transfected cells; host or cells: CHO K1 cells (Chinese hamster ovary), stably transfected
# Sequence (P46663 whole entry): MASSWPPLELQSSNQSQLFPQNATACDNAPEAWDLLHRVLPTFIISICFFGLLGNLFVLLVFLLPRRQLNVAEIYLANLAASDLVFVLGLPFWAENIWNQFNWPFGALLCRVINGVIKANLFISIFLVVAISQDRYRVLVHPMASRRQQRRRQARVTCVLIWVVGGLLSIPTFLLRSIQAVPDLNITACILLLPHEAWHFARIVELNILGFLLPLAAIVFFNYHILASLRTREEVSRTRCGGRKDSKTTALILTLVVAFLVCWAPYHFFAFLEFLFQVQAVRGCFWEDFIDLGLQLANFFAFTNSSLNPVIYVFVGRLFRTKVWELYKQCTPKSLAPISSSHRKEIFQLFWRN
# PROCEDURE_DETAILS: Functional study on the bradykinin receptor 1 (B1R), Ca2+ fluorescence (Fluo-4) FLIPR/Novostar assay, hB1R cells
# Assay type: cell-based
# STUDY_CONDITIONS: CHO-K1, read-out: % Inhibition (h-B1R) at 10 μM
Quick list: inhibition at 10 µM per entry.
Numbers only here, please. The scale is %.

>>> readout_number("Cc1cc(N2CCC(N(C)C(=O)c3ccc4c(c3)C(N(C)C(=O)c3cncnc3)CC4)CC2)cc(C)n1 (stereo not shown) [CC_H-92]")
98
>>> readout_number("CN(C(=O)c1ccc2c(c1)C(NC(=O)c1c(Cl)cccc1C(F)(F)F)CCO2)C1CCN(c2ccncc2)CC1 (stereo not shown) [CC_H-72]")
93
>>> readout_number("CN(C(=O)c1ccc2c(c1)C(NC(=O)C(C)(C)c1ccccc1Cl)CCO2)C1CCN(c2ccncc2)CC1 (stereo not shown) [CC_H-97]")
92
>>> readout_number("CN(C(=O)c1ccc2c(c1)C(NC(=O)CCC1CCCC1)CC2)C1CCN(c2ccncc2)CC1 (stereo not shown) [CC_H-59]")
99
>>> readout_number("CN(C(=O)c1ccc2c(c1)C(NC(=O)c1ccccc1Cl)CCC2)C1CCN(c2ccncc2)CC1 (stereo not shown) [CC_H-73]")
100
>>> readout_number("CN(C(=O)c1ccc2c(c1)C(NS(=O)(=O)Cc1ccccc1C(F)(F)F)CC2(C)C)C1CCN(c2ccncc2)CC1 (stereo not shown) [CC_H-89]")
100

# context switch: different molecule, same inhibition at 10 µM
Sample Cc1cc(N2CCC(N(C)C(=O)c3ccc4c(c3)C(NC(=O)c3cncnc3)CC4)CC2)cc(C)n1 (stereo not shown) [CC_H-118] — what was its inhibition at 10 µM?
89

====

Overview of reported inhibition at 10 µM across a group of molecules:
# SUBJECT_OF_TEST: B1R receptor of the rat (CHO K1 cells stably transfected with the B1R gene of the rat) (Rattus norvegicus, UniProt P97583)
# Construct: expressed in transfected cells; host or cells: CHO K1 cells (Chinese hamster ovary), stably transfected
# PROCEDURE_DETAILS: Functional study on the bradykinin receptor 1 (B1R), Ca2+ fluorescence (Fluo-4) FLIPR/Novostar assay, rB1R cells
# Type: cell-based
# STUDY_CONDITIONS: CHO-K1, 10 μM, read-out: % inhibition (rat B1R) at 10 μM
Enter your answer as a number in %; do not include the unit.

>>> readout_number("O=C(NC1CCN(c2ccc(C(F)(F)F)cn2)C1)c1ccc2c(c1)[C@H](NC(=O)c1ccccc1Cl)CC2 (stereo partly shown) [Example H-04]")
47
>>> readout_number("O=C(NCCC1CCN(c2ccncc2)CC1)c1ccc2c(c1)C(NC(=O)c1ccccc1Cl)CC2 (stereo not shown) [Example H-01]")
102
>>> readout_number("CN1CCN([C@@H]2CCC[C@H](N(C)C(=O)c3ccc4c(c3)[C@H](NS(=O)(=O)c3ccccc3Cl)CC4)C2)CC1 [Example H-104]")
37
>>> readout_number("CN(C(=O)c1cc2c(cc1F)[C@H](NC(=O)c1ccccc1Cl)CC2)C1CCN(c2ccncc2)CC1 [Example H-57]")
100
>>> readout_number("CN(C(=O)c1ccc2c(c1)[C@H](NC(=O)c1ccccc1C(F)(F)F)CC2)C1CCN(c2ccncc2)CC1 [Example H-30]")
99
>>> readout_number("Cc1cc(N2CC(N(C)C(=O)c3ccc4c(c3)[C@H](NC(=O)c3ccccc3Cl)CC4)C2)ccn1 [Example H-160]")
109

Shift focus to the following entry.
Find the recorded inhibition at 10 µM belonging to CCN(C(=O)c1ccc2c(c1)[C@H](NC(=O)c1ccccc1Cl)CC2)C1CCN(c2ncnc3nc[nH]c23)CC1 [Example H-156] and report it.
101

====

# SUBJECT_OF_TEST: B1R receptor of the rat (CHO K1 cells stably transfected with the B1R gene of the rat) (Rattus norvegicus)
# Construct: expressed in transfected cells; host or cells: CHO K1 cells (Chinese hamster ovary), stably transfected
# Sequence (P97583 1-337): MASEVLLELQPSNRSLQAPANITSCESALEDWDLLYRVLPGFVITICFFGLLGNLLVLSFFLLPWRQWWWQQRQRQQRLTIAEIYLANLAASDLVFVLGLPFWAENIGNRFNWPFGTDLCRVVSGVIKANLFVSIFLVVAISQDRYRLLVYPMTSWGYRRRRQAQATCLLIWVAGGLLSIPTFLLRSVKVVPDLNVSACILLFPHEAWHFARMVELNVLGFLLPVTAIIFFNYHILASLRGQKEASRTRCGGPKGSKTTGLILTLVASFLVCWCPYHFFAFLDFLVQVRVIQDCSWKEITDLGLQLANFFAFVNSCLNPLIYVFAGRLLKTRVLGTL
# PROCEDURE_DETAILS: Functional study on the bradykinin receptor 1 (B1R), Ca2+ fluorescence (Fluo-4) FLIPR/Novostar assay, rB1R cells
# Type: cell-based
# STUDY_CONDITIONS: CHO-K1, 10 μM, read-out: % Inhibition (r-B1R) at 10 μM
ASSAY_READOUT: inhibition at 10 µM (%)
Kindly answer with a numeric value in %, unit omitted.

Some entries whose results are on file:
>>> readout_number("CN(C(=O)c1ccc2c(c1)C(NC(=O)Nc1ccccc1Cl)CC2(C)C)C1CCN(c2ccncc2)CC1 (stereo not shown)")
96
>>> readout_number("Cc1cc(N2CCC(N(C)C(=O)c3ccc4c(c3)C(NC(=O)N(C)c3ccc(Cl)cc3Cl)CC4)CC2)cc(C)n1 (stereo not shown)")
110

Data request, read-out inhibition at 10 µM, for Cc1cccc(Cl)c1S(=O)(=O)NC1CC(C)(C)c2ccc(C(=O)N(C)C3CCN(c4ccncc4)CC3)cc21 (stereo not shown)
110

And what about the molecule CN(C(=O)c1ccc2c(c1)C(NC(=O)CCC1CCCC1)CC2)C1CCN(c2ccc3cnccc3c2)CC1 (stereo not shown) ?
109

Okay, and CN(C(=O)c1ccc2c(c1)C(NC(=O)c1sccc1Cl)CCC2)C1CCN(c2ccncc2)CC1 (stereo not shown) ?
103

====

Each entry below carries its recorded inhibition at 10 µM.
# SUBJECT_OF_TEST: B1R receptor of the rat (CHO K1 cells stably transfected with the B1R gene of the rat) (Rattus norvegicus, UniProt P97583)
# Construct: expressed in transfected cells; host or cells: CHO K1 cells (Chinese hamster ovary), stably transfected
# PROCEDURE_DETAILS: Functional study on the bradykinin receptor 1 (B1R), Ca2+ fluorescence (Fluo-4) FLIPR/Novostar assay, rB1R cells
# Type: cell-based
# STUDY_CONDITIONS: CHO-K1, 10 μM, read-out: % inhibition (rat B1R) at 10 μM
# Text: The agonistic or antagonistic action of substances can be quantified on the bradykinin receptor 1 (B1R) of the species human and rat using ectopically expressing cell lines (CHO K1 cells) and with the aid of a Ca^2+-sensitive dye (Fluo-4) using a fluorescent imaging plate reader (FLIPR). […] The agonistic or antagonistic action of substances can be determined on the bradykinin receptor 1 (B1R) of the species human and rat using the following assay. […]
Provide only the numeric value, understood in %.

Examples from the recorded data:
>>> readout_number("CN(C(=O)c1ccc2c(c1)[C@H](NC(=O)c1ccccc1Cl)CC2)C1CCN(c2cc[n+]([O-])cc2)CC1")
105
>>> readout_number("CN(C(=O)c1ccc2c(c1)[C@H](NC(=O)C(C)(C)c1ccccc1Cl)CC2)C1CCN(c2ccncc2)CC1")
98
>>> readout_number("COc1nc(C)cc(N2CCC(N(C)C(=O)c3ccc4c(c3)[C@H](NC(=O)c3ccccc3Cl)CC4)CC2)n1")
104

Please look up its inhibition at 10 µM: `CN(C(=O)c1ccc2c(c1)[C@H](NC(=O)c1ccccc1Cl)CC2)C1CCN(CC(=O)N2CCCC2)CC1`
49

Now consider `CN(C(=O)c1cc(F)c2c(c1)[C@H](N1Cc3cccc(Cl)c3C1=O)CCO2)C1CCN(c2ccncc2)CC1` .
104

Moving on to the next compound: `Cc1cc(N2CCC(CN(C)C(=O)c3ccc4c(c3)CC[C@H]4N3Cc4cccc(Cl)c4C3=O)CC2)ccn1`
73

Here is the next compound: `Cc1cc(N2CCC(N(C)C(=O)c3ccc4c(c3)[C@H](NC(=O)c3cccnc3C(F)(F)F)CC4)CC2)nc(C)n1`
108

Let us now turn to `CN(C(=O)c1ccc2c(c1)[C@H](NC(=O)c1ccccc1Cl)CC2)C1CCN(C(=O)CCN2CCCCC2)CC1`
105

Entry `Cc1cc(N2CCC(N(C)C(=O)c3cc4c(cc3F)[C@H](N3Cc5cccc(Cl)c5C3=O)CC4)CC2)nc(C)n1` please
98

Here is the next compound: `CN(C(=O)c1ccc2c(c1)[C@H](NC(=O)c1ccccc1Cl)CC2)C1CN(c2ccncc2)C1`
107
